- PROCEDURE_DETAILS: In vivo pharmacokinetics in SD rats
- EXPERIMENTAL_CONTEXT: male, SD, po; rat plasma, intragastric administration, 20 mg/kg
PROPERTY_NAME: Cmax (ng/mL)
Numbers only, in ng/mL.

Quick one: Cmax for COc1ncc(-c2ccc3nccc(-c4ccc(CN(C)C)cc4)c3c2)cc1NS(=O)(=O)c1ccc(F)cc1F [Compound 9] ? 7120

* * *

Provide the recorded pIC50 for the entries that follow.
- SUBJECT_OF_TEST: PI3Kγ (Homo sapiens, UniProt P48736)
- Sequence (P48736 whole entry, species assumed): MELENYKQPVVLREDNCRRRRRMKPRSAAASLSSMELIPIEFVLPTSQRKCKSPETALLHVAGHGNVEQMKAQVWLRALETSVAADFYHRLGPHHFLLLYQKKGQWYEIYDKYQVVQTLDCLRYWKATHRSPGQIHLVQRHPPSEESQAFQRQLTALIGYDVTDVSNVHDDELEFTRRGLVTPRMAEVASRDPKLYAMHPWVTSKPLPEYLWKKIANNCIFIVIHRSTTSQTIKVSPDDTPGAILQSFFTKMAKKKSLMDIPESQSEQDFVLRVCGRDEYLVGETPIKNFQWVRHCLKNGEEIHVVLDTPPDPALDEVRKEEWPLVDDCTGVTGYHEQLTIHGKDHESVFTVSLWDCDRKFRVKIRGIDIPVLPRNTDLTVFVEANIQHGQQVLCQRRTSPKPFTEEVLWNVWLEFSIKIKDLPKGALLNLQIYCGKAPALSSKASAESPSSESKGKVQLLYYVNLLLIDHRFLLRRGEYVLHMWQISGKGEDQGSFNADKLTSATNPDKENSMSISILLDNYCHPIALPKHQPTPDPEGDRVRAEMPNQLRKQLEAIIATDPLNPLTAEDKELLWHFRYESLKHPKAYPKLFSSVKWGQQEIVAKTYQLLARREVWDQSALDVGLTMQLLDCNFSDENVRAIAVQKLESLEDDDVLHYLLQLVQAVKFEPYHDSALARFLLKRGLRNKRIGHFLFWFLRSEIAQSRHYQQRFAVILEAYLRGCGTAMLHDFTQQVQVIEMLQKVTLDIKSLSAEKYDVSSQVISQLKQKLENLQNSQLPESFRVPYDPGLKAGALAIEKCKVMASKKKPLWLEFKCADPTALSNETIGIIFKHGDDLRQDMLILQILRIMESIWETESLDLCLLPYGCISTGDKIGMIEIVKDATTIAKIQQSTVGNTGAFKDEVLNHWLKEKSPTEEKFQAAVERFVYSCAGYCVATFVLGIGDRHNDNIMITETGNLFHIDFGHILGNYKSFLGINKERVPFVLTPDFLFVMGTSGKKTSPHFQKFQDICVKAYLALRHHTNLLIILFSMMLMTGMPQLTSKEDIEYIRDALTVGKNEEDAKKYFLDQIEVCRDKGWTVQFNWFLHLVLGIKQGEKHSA
Numbers only, as −log10 of the molar value.

As a guide, the following entries are already answered.
COMPOUND	pIC50
COc1ncc(-c2ccc3nccc(-c4ccc(Cn5cncn5)cc4)c3c2)cc1NS(=O)(=O)c1ccc(F)cc1F [Compound 10]	9.13
COc1ncc(-c2ccc3nccc(-n4cncn4)c3c2)cc1NS(=O)(=O)c1ccc(F)cc1F [Compound 1]	9.33

I would be grateful if you could provide pIC50 for each of the following entries.
1. COc1ncc(-c2ccc3nccc(-c4ccnnc4)c3c2)cc1NS(=O)(=O)c1ccc(F)cc1F [GSK2126458, reference compound]
2. COc1ncc(-c2ccc3nccc(-c4ccc(CN(C)C)cc4)c3c2)cc1NS(=O)(=O)c1ccc(F)cc1F [Compound 9]

1: 9.21; 2: 8.82
